Below: a set of entries, each annotated with reported max % inhibition of TNFalpha, donor 2.
# Test System: T1, human DR3 (full length, on cells) (human, UniProt Q93038 25-417)
# T1 sequence: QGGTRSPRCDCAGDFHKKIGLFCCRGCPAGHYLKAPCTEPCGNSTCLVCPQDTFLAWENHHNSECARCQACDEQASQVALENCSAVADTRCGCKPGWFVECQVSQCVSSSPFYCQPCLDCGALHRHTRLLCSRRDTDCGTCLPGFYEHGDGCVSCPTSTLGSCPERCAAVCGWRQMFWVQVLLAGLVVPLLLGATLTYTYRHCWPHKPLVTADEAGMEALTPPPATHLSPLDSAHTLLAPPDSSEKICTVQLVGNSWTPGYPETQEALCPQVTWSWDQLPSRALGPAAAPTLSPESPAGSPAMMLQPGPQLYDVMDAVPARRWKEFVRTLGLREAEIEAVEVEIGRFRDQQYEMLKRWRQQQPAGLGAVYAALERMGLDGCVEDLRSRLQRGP
# Method Notes: cell-based or functional assay

Binder	max % inhibition of TNFalpha, donor 2 (%)
0122 (chimeric Fab of 27F16, human IgG4 constant domain, hinge Cys->Ser) (Fab, V domains shown, murine variable domains, human IgG4 constant domain (IgG4-Ser), human kappa) VH: EVQLVESGGDFVKPGGSLKLSCAASGFTFNNYGMSWVRQTPDKRLEWVAAISSGVTYTYYPDTVKGRFTISRDNAKNTLYLHMSSLKSEDTAMYYCGRHDDYGNHFDYWGQGTTLTVSS VL: DIVMTQSPSSLAMSLGQRVTMNCKSSQSLLNSHNQKNYLAWYQQKPGQSPKLLVYFASSRESGVPDRFIGSGSGTDFTLTISSVQAEDLADYFCQQHYSTPFTFGSGTKLEIKR	10
0148 (chimeric Fab of 5F13, human IgG4 constant domain, hinge Cys->Ser) (Fab, V domains shown, IgG4-Ser, chimeric) VH: EVQLVESGGGLVKPGGSLKFSCAVSGFTFSSYVMSWVRQTPEKRLEWVAAISSDSTYTYYLDSVKGRFTISRDNAKNTLYLQMSSLRSEDTAMYYCARQTRSDAMDYWGQGTSVTVSS VL: DIVLTQSPASLAVSLGQRATISCRASESVDNYGNSFMHWYQQKPGQPPKLLIYRASNLESGIPARFSGSGSRTDFTLTINPVEADDVAIYYCQQSNEDPLTFGAGTKLELKR	-8.5
0123 (chimeric Fab of 27F44, human IgG4 constant domain, hinge Cys->Ser) (Fab, V domains shown, murine variable domains, human IgG4 constant domain (IgG4-Ser)) VH: EVKLVESGGGLVKPGGSLKLSCSASGFAFSNYDMSWVRQTPEKRLEWVAAFSSDGYTFYPDSLKGRFTISRDNARNTLYLQMSSLGSEDTALYCCARHADYANYPVMDYWGQGTSVTVSS VL: DIVLAQSPASLLVSLGQRATISCRASKSVSTSGYSYMHWYQQKPGQPPKLLIYLASNLESGVPARFSGSGSGTDFTLNIHPVEEEDAATYYCQHSRELPLTFGAGTMLELKR	75.9
0124 (chimeric Fab of 28F26, human IgG4 constant domain, hinge Cys->Ser) (Fab, V domains shown, murine variable domains, human IgG4 constant domain (IgG4-Ser)) VH: EVKVVESGGGLVKPGGSLKLSCAASGFVFSSYDMSWVRQIPEKRLEWVAAISSGDYYTYYPDSVKGRFTISRDDARNTLYLQMSSLRSEDTALYYCARHRGGNYPQYAMDYWGQGTSVTVSS VL: DILLTQSPASFAVSLGQRATISCRASKSVSTSGYNYIHWYQQKPGQPPKLLIYLTSNLESGVPARFSGSGSGTDFTLNIHPVEEEDAATYYCQHSRELPFTFGSGTKLEIKR	41.3
0130 (recombinant murine Fab of 45F36) (Fab, V domains shown, murine Fab; also called 00130) VH: EVQLVESGGGLVKPGGSLKLSCAASGFTFSSYAMSWVRQSPDKRLEWVAEISSGDTYTYYPDTVTGRFTISRDNAKKTLYLEMSGLRSEDTAMYYCARDREAYYGQQYVMDYWGQGTSVTVSS VL: DIVLTQSPASLAVSLGLSVTISCRASESIEYSGTSFLQWYQQKPGQPPRLLIYGSSTVESGVPARFSGSGSGTDFSLNIHPVEEDDSAMYFCQQSRRLPWTFGGGTKLEIKR	78
0143 (chimeric Fab of 44F434, human IgG4 constant domain, hinge Cys->Ser) (Fab, V domains shown, IgG4-Ser, chimeric) VH: EVQLVESGGDLVMPGGSLKLSCAASGFIFSSYGLSWIRQTPDKRLEWVATISGGDSYTYYPDSVKGRFTISSDNAKNTLYLQMTSLKSEDTAMYYCATQREIYYGTYYALDHWGQGTSVTVSS VL: DIQMTQTTSSLSASLGDRVTISCRASQDINNYLNWYQQKPDGTVKLLIYYTSRLQSGVPSRFSGSGSGTDYSLTISSLEQDDIATYFCQQGSPLPWTFGGGTKLEIKR	66
0228 (humanized Fab of 27F44, IgG4, hz0072VH S49A / hz0072VL) (Fab, V domains shown, IgG4-Cys, hz (humanized IgG4 Fab with the hinge cysteine kept)) VH: EVQLVESGGGLVQPGGSLRLSCAASGFTFSNYDMSWVRQATGKGLEWVAAFSSDGYTFYPGSVKGRFTISRENAKNSLYLQMNSLRAGDTAVYYCARHADYANYPVMDYWGQGTLVTVSS VL: DIQMTQSPSSLSASVGDRVTITCRASKSVSTSGYSYMHWYQQKPGKAPKLLIYLASNLESGVPSRFSGSGSGTDFTLTISSLQPEDFATYYCQHSRELPLTFGGGTKVEIKR	82.3

The reported numbers originate from patent US20170305994A1.
